Just for reference, the supplement of paper PMC8728848 is where these values come from.

# glycan array binding signal (z-score) values compiled below
# experimental.target: Gal(b1-4)GlcNAc(b1-2)Man(a1-3)[GlcNAc(b1-4)][Gal(b1-4)GlcNAc(b1-2)Man(a1-6)]Man(b1-4)GlcNAc(b1-4)GlcNAc
# test.method.notes: glycan array binding signal (z-score within array); higher = stronger binding
# condition.info: glycan notation: IUPAC condensed, linker removed
The entries come from a sample that favours the strongest signals as a whole.

binder	glycan array binding signal (z-score)
Na-CTL-1 (Necator americanus) (protein) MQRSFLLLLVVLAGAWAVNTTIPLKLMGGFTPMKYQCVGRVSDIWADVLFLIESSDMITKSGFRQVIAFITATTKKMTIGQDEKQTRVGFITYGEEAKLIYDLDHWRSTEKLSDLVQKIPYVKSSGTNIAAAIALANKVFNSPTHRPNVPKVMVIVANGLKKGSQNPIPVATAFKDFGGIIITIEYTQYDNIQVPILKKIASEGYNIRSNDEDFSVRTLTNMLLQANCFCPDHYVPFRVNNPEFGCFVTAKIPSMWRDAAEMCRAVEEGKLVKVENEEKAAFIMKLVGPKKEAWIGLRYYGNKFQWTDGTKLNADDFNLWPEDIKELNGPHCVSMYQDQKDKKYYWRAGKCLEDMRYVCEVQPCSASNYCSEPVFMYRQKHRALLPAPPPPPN	0.121
SSR2 (Sclerotium rolfsii) (protein) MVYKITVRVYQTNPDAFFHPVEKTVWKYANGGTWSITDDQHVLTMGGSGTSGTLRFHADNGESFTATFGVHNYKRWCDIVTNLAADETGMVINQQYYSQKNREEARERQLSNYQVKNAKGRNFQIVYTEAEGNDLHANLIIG	-0.259
